- System: Micrococcus luteus
- MEASUREMENT PROTOCOL: Antibacterial activity against Micrococcus luteus ATCC 4698 after 24 hrs by twofold broth dilution method
- Assay type: functional
- DETAILS: ATCC 4698, 24 h
Consider the following molecules; for each one, report its MIC.
Reply with just the number (in µg/mL).

Ask: Find the recorded MIC belonging to `COc1ccc2cc3[n+](cc2c1OCCN(CCn1cnc([N+](=O)[O-])c1)Cc1ccc(F)cc1F)CCc1cc2c(cc1-3)OCO2.[Cl-]` and report it.
Result: 16

Ask: Find the recorded MIC belonging to `COc1ccc2cc3[n+](cc2c1OCCN(CCn1cncc1[N+](=O)[O-])Cc1ccc(F)cc1F)CCc1cc2c(cc1-3)OCO2.[Cl-]` and report it.
Result: 8

Ask: Find the recorded MIC belonging to CCn1cc(C(=O)O)c(=O)c2cc(F)c(N3CCNCC3)cc21 [NORFLOXACIN] and report it.
Result: 2

Ask: Find the recorded MIC belonging to `O=[N+]([O-])c1cncn1CCN(CCBr)Cc1ccc(Cl)c(Cl)c1` and report it.
Result: 128

Ask: Find the recorded MIC belonging to `O=[N+]([O-])c1cncn1CCN(CCBr)Cc1ccccc1Cl` and report it.
Result: 64

Ask: Find the recorded MIC belonging to `O=[N+]([O-])c1cncn1CCN(CCBr)Cc1ccc(Cl)cc1` and report it.
Result: 128

Ask: Find the recorded MIC belonging to `COc1ccc2cc3[n+](cc2c1OCCN(CCn1cnc([N+](=O)[O-])c1)Cc1cccc(Cl)c1)CCc1cc2c(cc1-3)OCO2.[Cl-]` and report it.
Result: 64

Ask: Find the recorded MIC belonging to `O=[N+]([O-])c1cn(CCN(CCBr)Cc2ccc(Cl)c(Cl)c2)cn1` and report it.
Result: 64
